# System: T1, full-length beta-Catenin (Uniprot ID P35222) (Homo sapiens (Human), UniProt P35222 2-781)
# T1 construct: the AlphaScreen assay uses a Histidine (Nickel Chelate) detection kit, so a His tag is likely there; also called B-Catenin; bCat
# T1 sequence: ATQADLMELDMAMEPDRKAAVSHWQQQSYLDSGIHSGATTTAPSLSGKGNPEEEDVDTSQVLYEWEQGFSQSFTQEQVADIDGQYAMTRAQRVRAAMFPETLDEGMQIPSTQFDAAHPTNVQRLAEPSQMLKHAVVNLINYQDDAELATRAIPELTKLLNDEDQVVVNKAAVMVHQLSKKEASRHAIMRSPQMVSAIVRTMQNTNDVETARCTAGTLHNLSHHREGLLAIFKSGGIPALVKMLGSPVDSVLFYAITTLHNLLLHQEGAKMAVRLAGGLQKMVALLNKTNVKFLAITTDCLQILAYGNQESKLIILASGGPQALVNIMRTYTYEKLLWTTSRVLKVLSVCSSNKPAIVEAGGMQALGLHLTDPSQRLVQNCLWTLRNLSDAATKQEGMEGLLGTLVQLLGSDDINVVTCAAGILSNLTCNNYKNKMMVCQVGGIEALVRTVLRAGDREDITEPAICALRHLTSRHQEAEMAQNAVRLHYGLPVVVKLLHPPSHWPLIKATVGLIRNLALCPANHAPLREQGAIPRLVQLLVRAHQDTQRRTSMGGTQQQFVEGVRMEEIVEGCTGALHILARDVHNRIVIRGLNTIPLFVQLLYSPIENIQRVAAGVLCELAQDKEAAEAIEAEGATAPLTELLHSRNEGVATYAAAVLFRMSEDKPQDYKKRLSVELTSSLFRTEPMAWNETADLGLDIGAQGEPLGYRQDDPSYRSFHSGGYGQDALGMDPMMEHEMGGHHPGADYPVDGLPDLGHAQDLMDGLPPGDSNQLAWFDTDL
# Protocol Summary: AlphaScreen competition; full-length beta-catenin with biotin-TCF4(10-53) probe as competitor
pEC50: −log10 of the molar value. Starred links: 1 amine or outer side, 2 acyl side, 3 side chain; linkers in the order of their positions; H or OH if unused. Positions of bridges follow the written chain, without caps; N, C: chain ends. Non-standard residues stand in square brackets, D forms with d. Primed or numbered codes have the meaning given here. RdN(3) = (R)-4-(((allyloxy)carbonyl)(methyl)amino)-2-amino-2-methylbutanoic acid, stapling residue, C=CCOC(=O)N(C)CC[C@@](C)(N[*:1])C(=O)[*:2]; RdN″ = (R)-4-(((allyloxy)carbonyl)(methyl)amino)-2-amino-2-methylbutanoic acid (stapling residue), C=CCOC(=O)N(C)CC[C@@](C)(N[*:1])C(=O)[*:2]; B5(16) = 2-amino-2-(pent-4-en-1-yl)hept-6-enoic acid = 2,2-bis(4-pentenyl)glycine (stitching residue), C=CCCCC(CCCC=C)(N[*:1])C(=O)[*:2]; B5(4) = 2,2-bis(4-pentenyl)glycine = 2-amino-2-(pent-4-en-1-yl)hept-6-enoic acid (stitching residue), C=CCCCC(CCCC=C)(N[*:1])C(=O)[*:2]; PyrS″ = (S)-1-((allyloxy)carbonyl)-3-aminopyrrolidine-3-carboxylic acid (stapling residue), C=CCOC(=O)N1CC[C@@](N[*:1])(C(=O)[*:2])C1; B5(21) = 2-amino-2-(pent-4-en-1-yl)hept-6-enoic acid, bis(4-pentenyl)glycine (stitching residue), C=CCCCC(CCCC=C)(N[*:1])C(=O)[*:2]; PyrS = (S)-1-((allyloxy)carbonyl)-3-aminopyrrolidine-3-carboxylic acid, C=CCOC(=O)N1CC[C@@](N[*:1])(C(=O)[*:2])C1; H2Trp = 2,3-dihydrotryptophan (indolin-3-yl alanine); S7 = C[C@@](CCCCCC=[*:3])(N[*:1])C(=O)[*:2]; αAllylPro = C=CC[C@@]1(C(=O)O)CCCN1; R8 = C=CCCCCCC[C@@](C)(N)C(=O)O; S8 = C=CCCCCCC[C@](C)(N)C(=O)O; Nle = CCCC[C@H](N)C(=O)O; Aib = CC(C)(N)C(=O)O

# Binder, Inequality Sign, pEC50
measured = [
    ("Ac-[αAllylPro]DA[B5(21)]D[Nle]AAFV[S8]FWQ-NH2 (staple 1-4, 4-11; not fully specified; printed as Ac-PL3-Asp-Ala-B5-Asp-nLeu-Ala-Ala-Phe-Val-S8-Phe-Trp-Gln-NH2, stapled peptide) [I-139]", "≤", 5.00),
    ("Ac-ADI[RdN″]DEAAFA[S7]FWH-NH2 (staple 4-11, stapled peptide composition) [I-152]", "=", 6.12),
    ("DIXDDAAFQXFWH (not fully specified; as printed: Ac-Asp-Ile-RdN-Asp-Asp-Ala-Ala-Phe-Gln-S7-Phe-Trp-His-NH2; N-terminal acetyl, C-terminal amide; RdN(3), S7(10); staple RdN-S7 by olefin metathesis, stapled peptide) [I-150]", "=", 5.71),
    ("Ac-[αAllylPro]DA[B5(16)]DEAAFV[S8]F[H2Trp]Q-NH2 (staple 1-4, 4-11, stapled peptide) [I-167]", "=", 5.21),
    ("Ac-[Aib]DA[R8]DEAAFV[PyrS]FW[Aib]-NH2 (staple 4-11; not fully specified; printed as Ac-Aib-Asp-Ala-R8-Asp-Glu-Ala-Ala-Phe-Val-PyrS-Phe-Trp-Aib-NH2, stapled peptide) [I-160]", "=", 5.49),
    ("Ac-ADI[RdN(3)]DEAAFQ[S7]FWA-NH2 (staple 4-11, stapled peptide composition) [I-153]", "=", 6.82),
    ("Ac-FDA[R8]DDAAFV[PyrS″]EWQ-NH2 (staple 4-11; not fully specified; printed as Ac-Phe-Asp-Ala-R8-Asp-Asp-Ala-Ala-Phe-Val-PyrS-Glu-Trp-Gln-NH2, stapled peptide) [I-162]", "≤", 5.00),
    ("Ac-FDA[R8]DDAAFS[PyrS″]FWQ-NH2 (staple 4-11; not fully specified; printed as Ac-Phe-Asp-Ala-R8-Asp-Asp-Ala-Ala-Phe-Ser-PyrS-Phe-Trp-Gln-NH2, stapled peptide) [I-163]", "=", 5.01),
    ("ADIXDEAAFAXFWA (not fully specified; as printed: Ac-Ala-Asp-Ile-RdN-Asp-Glu-Ala-Ala-Phe-Ala-S7-Phe-Trp-Ala-NH2; N-terminal acetyl, C-terminal amide; RdN(4), S7(11); staple RdN-S7 by olefin metathesis, stapled peptide) [I-155]", "=", 6.13),
    ("Ac-[αAllylPro]DA[B5(4)]D[Nle]AAFV[S8]FWQ-NH2 (staple 1-4, 4-11; not fully specified; printed as Ac-PL3-Asp-Ala-B5-Asp-nLeu-Ala-Ala-Phe-Val-S8-Phe-Trp-Gln-NH2, stapled peptide) [I-138]", "≤", 5.00),
]
